Attribution: patent US20190328788A1

- experimental.target: T1, transforming growth factor-beta 2 (TGF-β2) (UniProt P61812 303-414)
- T1 construct: also called TGFb2; TGFB2
- T1 sequence (looked up): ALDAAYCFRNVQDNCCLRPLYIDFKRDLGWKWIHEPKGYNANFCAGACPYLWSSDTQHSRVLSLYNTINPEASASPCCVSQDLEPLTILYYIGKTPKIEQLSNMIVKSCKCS
- protocol.text: ELISA, peptide on streptavidin plate, ligand 100 ng/ml
Ends that are not written are not given here.
Measured ELISA OD450 by item
Write it as a number; the unit OD450 goes unstated.

Worked set:
MIKRAEDYGPVEVISHWHPNG (also: biotinylated, site not given here) [CLPTM1 peptide fragment of SEQ ID NO: 19] = 0.002
ITINIVDDHTPWVKGSVPPPG (also: biotinylated, site not given here) [CLPTM1 peptide fragment of SEQ ID NO: 20] = 0.005

Please look up its ELISA OD450: RRRFQKTKNLLTGETEADPEG (also: biotinylated, site not given here) [CLPTM1 peptide fragment of SEQ ID NO: 18]
0.002
